# Tested on: NCI-H460
# method-summary: NCI tumour cell line growth inhibition, 48 h
The source made the active and inactive calls. Rule as the data show it: active = GI50 up to about 1.1 µM and inactive = higher.
endpoint-label: GI50

Query: Determine its reported GI50: `CC(=O)NNC(=S)N/C=C1/C(=O)C=C(C)OC1=O`
Reply: > 100 µM (inactive)

Query: Determine its reported GI50: `CNC1=Nc2ccccc2C(=S)N2CSC[C@@H]12`
Reply: > 100 µM (inactive)

Query: Determine its reported GI50: Clc1ccc(C2N3CCCCC3[C@@H]3c4[nH]c5ccccc5c4CCN23)cc1 (stereo partly specified)
Reply: 61.8 µM (inactive)

Query: Determine its reported GI50: `O=c1c2cc([N+](=O)[O-])cnc2sn1-c1ccc([N+](=O)[O-])cc1`
Reply: 45.1 µM (inactive)

Query: Determine its reported GI50: `CN(C)c1ccc(/C=C(\NC(=O)c2ccccc2)c2nc3ccccc3c(=O)o2)cc1`
Reply: > 100 µM (inactive)

Query: Determine its reported GI50: CC1(S)CC2C(CC1Sc1ccccc1)C2(C)C (stereo unspecified)
Reply: > 100 µM (inactive)

Query: Determine its reported GI50: `C1CSCCCSCCSCCCSC1`
Reply: > 100 µM (inactive)

Query: Determine its reported GI50: O=C(CC1C=CCS1(=O)=O)NCc1ccccc1 (stereo unspecified)
Reply: > 100 µM (inactive)

Query: Determine its reported GI50: NC1CSc2ccccc2NC1=O (stereo unspecified)
Reply: > 100 µM (inactive)

Query: Determine its reported GI50: `CC1(C)C(=O)CCC(=O)C(C)(C)C2=CC=C(O2)C(C)(C)C(=O)CCC(=O)C(C)(C)C2=CC=C1O2`
Reply: > 100 µM (inactive)

Query: Determine its reported GI50: `O=C1c2c(c3c4ccccc4n4c3c3c2c2ccccc2n3C/C=C\C4)C(=O)N1Cc1ccccc1`
Reply: > 100 µM (inactive)

The values you see were collected from ChEMBL document CHEMBL1201862.
